Entry source: PubChem BioAssay (NCI)

Tested on: NCI-H23 lung
test.description: NCI tumour cell line growth inhibition, 48 h
Here, each record is paired with measured TGI data.

| compound | tgt | TGI |
| --- | --- | --- |
| CC(=O)O[C@@H]1[C@H](C(C)C)[C@@H](OC(C)=O)C/C(C)=C/CC[C@]2(C)O[C@@H]12 | NCI-H23 lung | > 100 µM |
| C=CC1(C)CCC2C(=CCC3C2(C)CC(O)C(O)C3(C)COC2OC(C(=O)O)C(O)C(O)C2O)C1 (centres undefined) (tested in a mixture with another compound) | NCI-H23 lung | > 100 µM |
| CC(=O)OC1OC([C@@H]2c3cccc(O)c3C(=O)c3c(O)cc(C)cc32)C(O)C(O)C1O (some centres undefined) | NCI-H23 lung | 0.216 µM |
| CC1CCc2nc[nH]c(=O)c21 (centres undefined) | NCI-H23 lung | > 100 µM |

* * *

Tested on: DU-145 prostate
test.description: NCI tumour cell line growth inhibition, 48 h
*1 amine or outer side, *2 acyl side, *3 side chain or, on linkers, in order; H or OH if unused. Where a SMILES comes first, the peptide text is derived from it. Bridges are numbered along the chain shown (N, C = ends). [ ]: non-standard residue; d: D form. The star is where a group is joined. Phe(3,5-F2) = N[C@@H](Cc1cc(F)cc(F)c1)C(=O)O; Pro(4R-Me) = C[C@H]1CN[C@H](C(=O)O)C1; aThr = C[C@H](O)[C@H](N)C(=O)O; Pip = O=C(O)[C@@H]1CCCCN1; X10 = Fc1cc(C2CC2)ccc1N*; CO = O=C([*:1])[*:2]
Here, each record is paired with measured TGI data.

| molecule | TGI |
| --- | --- |
| ClCCN1CCC2(CC1)SSC1(CCN(CCCl)CC1)S2 | > 100 µM |
| COC(=O)C([C@H](NC1(c2ccccc2)c2ccccc2-c2ccccc21)C(=O)OC)N(NC(=O)OCc1ccccc1)C(=O)OCc1ccccc1 (mixture of isomers) | > 100 µM |
| CCOC1Oc2ccccc2C(=O)/C1=C/Nc1ccc(C(C)=O)cc1 (stereo not drawn) | > 100 µM |
| Nc1ccccc1C#C/C=C\C#Cc1ccccc1OC(F)(F)F | 29.9 µM |
| COc1cc(Br)cc2cc(-c3cn4ccsc4n3)c(=O)oc12 | > 100 µM |
| COc1cc(C2c3cc4c(cc3OC(N3CCOCC3)C2C)OCO4)ccc1O (stereo not drawn) | > 100 µM |
| Cc1ccc(N=NC(=Nc2ccccc2)c2ccc(N(CCC#N)CCC#N)cc2)cc1 | > 100 µM |
| OCc1cc2ccccc2c2c3c(ccc12)OCO3 | 170 µM |
| C[C@@H]1C[C@H]2C(=O)O[C@@H](C)[C@H](NC(=O)[C@H](Cc3cc(F)cc(F)c3)NC(=O)Nc3ccc(C4CC4)cc3F)C(=O)N3CCC[C@H]3C(=O)N3CCCC[C@H]3C(=O)N[C@@H](C)C(=O)N2C1 ({X10-CO}-[Phe(3,5-F2)][aThr]P[Pip]A[Pro(4R-Me)]; ester 2-C) | > 56.9 µM |
| CN(C)c1ccc(/C=C\C2=[N+](C)c3ccccc3C2(C)C)cc1 | 27 µM |
| O=C1c2ccccc2-c2c1c1ccccc1c(=O)n2CCNCCNCCNCCn1c2c(c3ccccc3c1=O)C(=O)c1ccccc1-2 | 1.76 µM |
| C=CCN1C[C@H](C)N([C@H](c2ccc(C(=O)NC(CC)CC)cc2)c2cccc(OC)c2)C[C@H]1C | > 100 µM |
| COC(=O)c1ccccc1CC1Cc2ccc3c(c2C1=O)CCCC3 (stereo not drawn) | > 100 µM |
| Cc1ccc(NC(=O)Nc2ccc(-c3cccnc3)cc2N2CCC(CO)CC2)cc1 | > 100 µM |
| Cc1ccsc1C(=S)Nc1ccc(Cl)c(/C=N/OC(C)(C)C)c1 | > 100 µM |
| O=C(Nc1ccc(-n2ccc3c(NC(=O)c4ccccc4)nccc32)cc1)c1ccc(Cl)c(C(F)(F)F)c1 | 10.7 µM |
| CCCCCCCCCCCCCCNC(=O)CCC(NC(=O)c1ccc(N(C)Cc2cnc3nc(N)nc(N)c3n2)cc1)C(=O)NCCCCCCCCCCCCCC (stereo not drawn) | > 100 µM |
| c1ccc(N=c2sc3ccccc3nc2Nc2ccccc2)cc1 | > 100 µM |
